Target: Broad substrate specificity ATP-binding cassette transporter ABCG2 (Homo sapiens)
Test: Inhibition of human ABCG2 expressed in dog MDCK-II-BCRP cells membrane vesicles mediated transport of 3[H]-methotrexate for 5 mins using [3H]-methotrexate as substrate by radiometric scintillation analysis
Type: cell membranes, Membrane vesicle

molecule	IC50 / µM
CC1=NN(c2ccc(C)c(C)c2)C(=O)/C1=N\Nc1cccc(-c2cccc(C(=O)O)c2)c1O	3.1

###

Target: Broad substrate specificity ATP-binding cassette transporter ABCG2 (Homo sapiens)
Sequence (Q9UNQ0 whole entry): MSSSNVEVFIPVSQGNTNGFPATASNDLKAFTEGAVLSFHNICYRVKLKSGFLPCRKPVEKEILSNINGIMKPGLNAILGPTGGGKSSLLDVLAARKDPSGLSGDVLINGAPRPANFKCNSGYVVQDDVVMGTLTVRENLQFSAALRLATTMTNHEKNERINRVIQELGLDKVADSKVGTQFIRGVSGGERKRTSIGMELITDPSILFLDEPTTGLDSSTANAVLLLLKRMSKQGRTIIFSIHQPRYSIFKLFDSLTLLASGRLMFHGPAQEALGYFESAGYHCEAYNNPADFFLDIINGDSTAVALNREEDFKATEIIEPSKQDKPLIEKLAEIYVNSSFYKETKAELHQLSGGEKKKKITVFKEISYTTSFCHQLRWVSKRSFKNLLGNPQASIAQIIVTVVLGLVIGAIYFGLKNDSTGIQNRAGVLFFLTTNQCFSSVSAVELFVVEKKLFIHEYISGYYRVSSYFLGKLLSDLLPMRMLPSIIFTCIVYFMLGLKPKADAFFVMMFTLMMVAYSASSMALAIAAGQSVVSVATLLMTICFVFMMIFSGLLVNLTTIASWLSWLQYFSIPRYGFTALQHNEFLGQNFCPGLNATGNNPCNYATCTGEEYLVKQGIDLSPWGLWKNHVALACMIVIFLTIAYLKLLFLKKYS
Experiment: Inhibition of ABCG2 (unknown origin) by microplate reader analysis
measured_metric: IC50 (nM)

molecule	measured_number
COc1ccc(/C(C#N)=C/c2ccc(N3CCC(O)CC3)s2)cc1OC	100

###

Biological target: Broad substrate specificity ATP-binding cassette transporter ABCG2 (Homo sapiens)
Assay: Inhibition of ABCG2 (unknown origin) expressed in human HEK293 cells assessed as BODIPY-Prazosin uptake and measured after 2 hrs by FACScan flow cytometry analysis
Type: cell-based

molecule	system_tested	scale_unit	IC50
CS(=O)(=O)c1ccc(C(=O)Nc2ccc(Cl)c(-c3ccccn3)c2)c(Cl)c1	Broad substrate specificity ATP-binding cassette transporter ABCG2 (Homo sapiens)	nM	1400

###

Molecular target: Broad substrate specificity ATP-binding cassette transporter ABCG2 (Homo sapiens)
Experiment: Inhibition of human ABCG2 expressed in human HEK293 cells mediated pheophorbide A efflux assessed as intracellular pheophorbide A accumulation for 45 mins by FACSort flow cytometry
Type: cell-based
measured_metric: IC50 (µM)

molecule	system_tested	measured_number
COC(=O)C1=C(C)NC(C)=C(C(=O)OC)C1c1ccccc1[N+](=O)[O-]	Broad substrate specificity ATP-binding cassette transporter ABCG2 (Homo sapiens)	50.5

###

Biological target: Broad substrate specificity ATP-binding cassette transporter ABCG2 (Homo sapiens)
Experiment: Inhibition of ABCG2 (unknown origin) expressed in human HEK293 cells membrane vesicles assessed inhibition of BCRP- mediated transport of 3[H]-E1S for 1 mins using [3H]-estrone sulfate as substrate by rapid filtration technique
Format: cell membranes, Membrane vesicle
pIC50: −log10 of the molar value.

compound	bound_type	pIC50
CSc1ccc2c(c1)N(CCC1CCCCN1C)c1ccccc1S2 (stereo not drawn)	=	5.18
CC(C)=CCC/C(C)=C/CNCCNC1C2CC3CC(C2)CC1C3 (stereo not drawn)	=	5.26
COc1cc(C(=O)C(=O)N(C)[C@@H](Cc2ccc(Cl)cc2)C(=O)N(Cc2ccccc2)C(CCc2ccncc2)CCc2ccncc2)cc(OC)c1OC	<	4.00
